Let's go through some recorded IC50 values for MAGL (Homo sapiens) together.
The reply should contain only the number, in nM.

Form field IC50, entry CS(=O)(=O)c1ccc(C(c2ccccc2)C2CCN(C(=O)c3ccc4c(c3)NC(=O)CO4)CC2)cc1 (single isomer, unassigned) [Example 133] : 25.1

IC50 in this record for Cn1cc(C(c2ccccc2)C2CCN(C(=O)c3ccc4c(c3)NC(=O)CO4)CC2)cn1 (single isomer, unassigned) [Example 141] : 6.68

IC50 reading for COc1cc(C(c2ccccc2)C2CCN(C(=O)c3ccc4c(c3)NC(=O)CO4)CC2)ccc1OCCF (single isomer, unassigned) [Example 138] : 9.41

Origin of measurements: patent US11420961B2
